Please provide measured IC50 for the entries that follow.
studyTarget: Avi-KRAS G12D (1-169) GppNHp/RAF1 RBD-3×FLAG (52-151) (Homo sapiens, UniProt P01116, G12D)
Construct: Avi-KRAS G12D (1-169) GppNHp
Sequence (P01116 1-169 isoform P01116-2 G12D limits assumed): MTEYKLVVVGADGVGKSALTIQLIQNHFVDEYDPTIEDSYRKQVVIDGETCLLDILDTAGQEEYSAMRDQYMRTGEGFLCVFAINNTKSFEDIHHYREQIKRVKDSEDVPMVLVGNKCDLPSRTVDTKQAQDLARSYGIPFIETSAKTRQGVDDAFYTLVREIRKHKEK
experimentSummary: HTRF Raf1-KRAS G12D-GppNHp disruption assay
measurementContext: 1 h incubation

Please give the measured IC50 for this molecule: N#Cc1c(N)sc2c(F)ccc(-c3c(C(F)(F)F)cc4c(N5C[C@H]6CC[C@@H](C5)N6)nc(N5CC(N6CC7(CC7)C6)C5)nc4c3F)c12
100 to 1000 nM

Please give the measured IC50 for this molecule: Cc1ccc2[nH]ncc2c1-c1c(Cl)cc2c(NCCN)nc(OC[C@@H]3CCCN3C)nc2c1F
10000 to 30000 nM

Please give the measured IC50 for this molecule: C[C@@H]1C[C@@H](N(C)c2nc(OC[C@@]34CCCN3C[C@H](F)C4)nc3cc(-c4ccc(F)c5sc(N)nc45)c(C(F)(F)F)cc23)CN1
100 to 1000 nM

Please give the measured IC50 for this molecule: CNCCNc1nc(OC[C@@H]2CCCN2C)nc2c(F)c(-c3ccc(F)c4sc(N)nc34)c(Cl)cc12
1000 to 10000 nM

Please give the measured IC50 for this molecule: CN1CC(C)(C)C[C@H]1COc1nc(N2CC3CCC(C2)N3)c2cc(C(F)(F)F)c(-c3ccc(F)c4sc(N)nc34)c(F)c2n1
1000 to 10000 nM

Please give the measured IC50 for this molecule: NCC(=O)N1C2CCC1CN(c1nc(OC[C@@]34CCCN3C[C@H](F)C4)nc3c(F)c(-c4ccc(F)c5sc(N)nc45)c(C(F)(F)F)cc13)C2
100 to 1000 nM

* * *

studyTarget: Avi-KRAS G12D/Q25A (1-169) GppNHp/3×FLAG-PI3KCA (157-299) (Homo sapiens, UniProt P01116, G12D/Q25A)
Construct: Avi-KRAS G12D/Q25A (1-169) GppNHp
Sequence (P01116 1-169 isoform P01116-2 G12D/Q25A limits assumed): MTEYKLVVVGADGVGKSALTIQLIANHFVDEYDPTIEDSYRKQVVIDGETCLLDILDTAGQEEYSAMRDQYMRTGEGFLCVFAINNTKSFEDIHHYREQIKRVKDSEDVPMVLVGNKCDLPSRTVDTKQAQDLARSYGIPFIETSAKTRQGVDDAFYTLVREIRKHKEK
experimentSummary: HTRF PI3KCA-KRAS G12D/Q25A-GppNHp disruption assay
measurementContext: 1 h incubation
readoutName: IC50

Please give the measured IC50 for this molecule: N#CCc1cc2c(N3CCN(C(=O)CN)CC3)ncnc2c(F)c1-c1ccc(F)c2sc(N)nc12 [Compound 131]
10 to 30 µM

Please give the measured IC50 for this molecule: Nc1nc2c(-c3c(C(F)(F)F)cc4c(N5CC6CCC(C5)N6)nc(OC[C@@]56CCCN5C[C@H](F)C6)nc4c3F)ccc(F)c2o1 [Compound 220]
0.1 to 1 µM

Please give the measured IC50 for this molecule: CN1CCC[C@H]1COc1nc(NCCN)c2cc(Cl)c(-c3cccc4cc(O)ccc34)c(F)c2n1 [Compound 74]
10 to 30 µM

Please give the measured IC50 for this molecule: CN1CCC[C@H]1COc1nc(N2CC3(CCCN3)C2)c2cc(Cl)c(-c3ccc(F)c4sc(N)nc34)c(F)c2n1 [Compound 85]
10 to 30 µM

* * *

Please provide measured IC50 for the entries that follow.
Tested on: pERK in GP2d cells (KRAS G12D)
experimentSummary: Cell-based pERK HTRF assay
measurementContext: GP2d, 1 h, 60 min incubation

What value of IC50 on pERK in GP2d cells (KRAS G12D) does N#Cc1c(N)sc2c(F)ccc(-c3c(C(F)(F)F)cc4c(N5CC6CCC(C5)N6)nc(OCC5(CN6CC[C@@H](F)C6)CC5)nc4c3F)c12 [Compound 330] have?
≤ 100 nM

What value of IC50 on pERK in GP2d cells (KRAS G12D) does Fc1c(-c2ccc(F)c3sc(C(F)F)nc23)c(C(F)(F)F)cc2c(N3CC4CCC(C3)N4)nc(OC[C@@]34CCCN3C[C@H](F)C4)nc12 [Compound 339] have?
> 1000 nM

What value of IC50 on pERK in GP2d cells (KRAS G12D) does Nc1nc2c(-c3c(C(F)(F)F)cc4c(N[C@@H]5CCNC5)nc(OC[C@@]56CCCN5C[C@H](F)C6)nc4c3F)ccc(F)c2s1 (atropisomer, axis not shown) [Compound 248] have?
> 1000 nM

What value of IC50 on pERK in GP2d cells (KRAS G12D) does CN1C2CCC1CN(c1nc(OC[C@@]34CCCN3C[C@H](F)C4)nc3c(F)c(-c4ccc(F)c5sc(N)nc45)c(C(F)(F)F)cc13)C2 [Compound 221] have?
100 to 1000 nM

What value of IC50 on pERK in GP2d cells (KRAS G12D) does Nc1c(F)c(F)c(F)c(-c2c(C(F)(F)F)cc3c(N4CC5CCC(C4)N5)nc(OCC45CCCN4CCC5)nc3c2F)c1Cl [Compound 346] have?
> 1000 nM

What value of IC50 on pERK in GP2d cells (KRAS G12D) does N#Cc1c(N)cccc1-c1c(C(F)(F)F)cc2c(N3CC4CCC(C3)N4)nc(OCC34CCCN3CCC4)nc2c1F [Compound 342] have?
> 1000 nM

* * *

Please provide measured pIC50 for the entries that follow.
studyTarget: Avi-KRAS G12D (1-169) GppNHp/RAF1 RBD-3×FLAG (52-151) (Homo sapiens, UniProt P01116, G12D)
Construct: Avi-KRAS G12D (1-169) GppNHp
experimentSummary: HTRF Raf1-KRAS G12D-GppNHp disruption assay
measurementContext: 1 h incubation
pIC50: −log10 of the molar value.

Please give the measured pIC50 for this molecule: N#Cc1c(N)sc2c(F)ccc(-c3c(C(F)(F)F)cc4c(N5CC6CCC(C5)N6)nc(OC[C@@]56CCCN5C[C@H](F)C6)nc4c3F)c12 (single isomer, unassigned) [Compound 367]
5.00 to 6.00

Please give the measured pIC50 for this molecule: CN1CCC[C@H]1COc1nc(NC2CN(C(=O)CN)C2)c2cc(C(F)(F)F)c(-c3ccc(F)c4sc(N)nc34)c(F)c2n1 [Compound 114]
5.00 to 6.00

Please give the measured pIC50 for this molecule: CN(c1nc(OCC23CCCN2CCC3)nc2c(F)c(-c3ccc(F)c4sc(N)nc34)c(C(F)(F)F)cc12)[C@@H]1CCN(C(=O)CN)C1 (atropisomer, axis not shown) [Compound 276]
6.00 to 7.00

Please give the measured pIC50 for this molecule: CN(c1nc(OC[C@@]23CCCN2C[C@H](F)C3)nc2c(F)c(-c3ccc(F)c4sc(N)nc34)c(C(F)(F)F)cc12)[C@H]1CNCC12CC2 [Compound 312]
5.00 to 6.00

Please give the measured pIC50 for this molecule: CN1CCC[C@H]1COc1nc(NC2CNC2)c2cc(Cl)c(-c3ccc(F)c4sc(N)nc34)c(F)c2n1 [Compound 55]
5.00 to 6.00

Please give the measured pIC50 for this molecule: NC(=O)N1CCN(c2nc(OCC34CCCN3CCC4)nc3c(F)c(-c4ccc(F)c5sc(N)nc45)c(C(F)(F)F)cc23)CC1 [Compound 165]
4.52 to 5.00

* * *

studyTarget: Avi-KRAS G12D (1-169) GppNHp/RAF1 RBD-3×FLAG (52-151) (Homo sapiens, UniProt P01116, G12D)
Construct: Avi-KRAS G12D (1-169) GppNHp
experimentSummary: HTRF Raf1-KRAS G12D-GppNHp disruption assay
measurementContext: 1 h incubation
readoutName: IC50

Please give the measured IC50 for this compound: NCC(=O)N1CCN(c2nc(OCC34CCCN3CCC4)nc3c(F)c(-c4ccc(F)c5sc(N)nc45)c(C(F)(F)F)cc23)CC1
100 to 1000 nM

Please give the measured IC50 for this compound: CN(c1nc(OC[C@@]23CCCN2C[C@H](F)C3)nc2c(F)c(-c3ccc(F)c4sc(N)nc34)c(C(F)(F)F)cc12)C1CCNC1 (stereo in doubt)
100 to 1000 nM

Please give the measured IC50 for this compound: Nc1nc2c(-c3c(C(F)(F)F)cc4c(N5CC6COCC(C5)N6)nc(OC[C@@]56CCCN5C[C@H](F)C6)nc4c3F)ccc(F)c2s1
100 to 1000 nM

* * *

studyTarget: Avi-KRAS G12D/Q25A (1-169) GppNHp/3×FLAG-PI3KCA (157-299) (Homo sapiens, UniProt P01116, G12D/Q25A)
Construct: Avi-KRAS G12D/Q25A (1-169) GppNHp
experimentSummary: HTRF PI3KCA-KRAS G12D/Q25A-GppNHp disruption assay
measurementContext: 1 h incubation
Please provide measured IC50 for the entries that follow.

Please give the measured IC50 for this compound: CN1CCC(Oc2nc(N3CC4CCC(C3)N4)c3cc(C(F)(F)F)c(-c4ccc(F)c5sc(N)nc45)c(F)c3n2)CC1 [Compound 340]
1 to 10 µM

Please give the measured IC50 for this compound: CNCCNc1nc(OC[C@@H]2CCCN2C)nc2c(F)c(-c3ccc(F)c4sc(N)nc34)c(Cl)cc12 [Compound 70]
10 to 30 µM

Please give the measured IC50 for this compound: Nc1nc2c(-c3c(C(F)(F)F)cc4c(N5CC6CC5CN6)nc(OC[C@@]56CCCN5C[C@H](F)C6)nc4c3F)ccc(F)c2s1 (stereo partly shown) [Compound 239]
1 to 10 µM

Please give the measured IC50 for this compound: CN1CCC[C@H]1COc1nc(N2CCN(C(=O)CN)CC2)c2cc(C(F)(F)F)c(-c3ccc(F)c4sc(N)nc34)c(F)c2n1 [Compound 116]
1 to 10 µM

Please give the measured IC50 for this compound: NCC(=O)N1CC[C@@H]2[C@H]1CN2c1nc(OCC23CCCN2CCC3)nc2c(F)c(-c3ccc(F)c4sc(N)nc34)c(C(F)(F)F)cc12 [Compound 202]
1 to 10 µM

Please give the measured IC50 for this compound: Nc1nc2c(-c3cc4nc(OC[C@@]56CCCN5C[C@H](F)C6)nc(N5CC6CCC(C5)N6)c4cc3C(F)(F)F)ccc(F)c2s1 [Compound 313]
1 to 10 µM

Please give the measured IC50 for this compound: CN1CCC[C@H]1COc1nc(N(C2CC2)C2CNC2)c2cc(Cl)c(-c3ccc(F)c4sc(N)nc34)c(F)c2n1 [Compound 152]
10 to 30 µM

Please give the measured IC50 for this compound: CN(c1nc(OCC23CCCN2CCC3)nc2c(F)c(-c3ccc(F)c4sc(N)nc34)c(C(F)(F)F)cc12)C1CCNCC1 [Compound 280]
1 to 10 µM

Please give the measured IC50 for this compound: Nc1nc2c(-c3c(C(F)(F)F)cc4c(N5CC6CCC5CN6)nc(OC[C@@]56CCCN5C[C@H](F)C6)nc4c3F)ccc(F)c2s1 (stereo partly shown) [Compound 223]
0.1 to 1 µM

Please give the measured IC50 for this compound: CN(c1nc(OC[C@@]23CCCN2C[C@H](F)C3)nc2c(F)c(-c3ccc(F)c4sc(N)nc34)c(C(F)(F)F)cc12)[C@H]1CNCC1(C)C [Compound 325]
1 to 10 µM

Please give the measured IC50 for this compound: CN(c1nc(OCC23CCCN2CCC3)nc2c(F)c(-c3ccc(F)c4sc(N)nc34)c(C(F)(F)F)cc12)C1CC2CC[C@@H](C1)N2 (stereo partly shown) [Compound 268]
1 to 10 µM

Please give the measured IC50 for this compound: Nc1nc2c(-c3c(C(F)(F)F)cc4c(NC5CC6CC[C@H](C5)N6)nc(OCC56CCCN5CCC6)nc4c3F)ccc(F)c2s1 (stereo partly shown) [Compound 264]
0.1 to 1 µM

Please give the measured IC50 for this compound: CN(c1nc(OCC23CCCN2CCC3)nc2c(F)c(-c3ccc(F)c4sc(N)nc34)c(Cl)cc12)C1CN(C(N)=O)C1 [Compound 182]
10 to 30 µM

Please give the measured IC50 for this compound: NCC(=O)N1C2CCC1CN(c1nc(OC[C@@]34CCCN3C[C@H](F)C4)nc3c(F)c(-c4ccc(F)c5sc(N)nc45)c(C(F)(F)F)cc13)C2 [Compound 272]
1 to 10 µM

Please give the measured IC50 for this compound: Nc1nc2c(-c3c(-c4ccoc4)cc4c(N5CC6CCC(C5)N6)nc(OC[C@@]56CCCN5C[C@H](F)C6)nc4c3F)ccc(F)c2s1 [Compound 237]
1 to 10 µM

Please give the measured IC50 for this compound: CN1C[C@H](F)C[C@H]1COc1nc(NC2CNC2)c2cc(Cl)c(-c3ccc(F)c4sc(N)nc34)c(F)c2n1 [Compound 106]
1 to 10 µM

Please give the measured IC50 for this compound: Nc1nc2c(-c3c(C(F)(F)F)cc4c(N[C@H]5CCC6(CNC6)C5)nc(OCC56CCCN5CCC6)nc4c3F)ccc(F)c2s1 [Compound 335]
0.1 to 1 µM

Please give the measured IC50 for this compound: N#Cc1c(-c2ccc(F)c3sc(N)c(C#N)c23)c(Cl)cc2c(N3CC4CCC(C3)N4)nc(OC[C@@]34CCCN3C[C@H](F)C4)nc12 [Compound 371]
0.1 to 1 µM

Please give the measured IC50 for this compound: CN(c1nc(OCC23CCCN2CCC3)nc2c(F)c(-c3ccc(F)c4sc(N)nc34)c(C(F)(F)F)cc12)[C@@H]1CCN(C(=O)CN)C1 (atropisomer, axis not shown) [Compound 277]
1 to 10 µM

Please give the measured IC50 for this compound: Nc1nc2c(-c3c(C(F)(F)F)cc4c(N5CCC6(CCNC6)CC5)nc(OCC56CCCN5CCC6)nc4c3F)ccc(F)c2s1 [Compound 308]
1 to 10 µM

Please give the measured IC50 for this compound: CN1CCC[C@H]1COc1nc(NCCN)c2cc(Cl)c(-c3cccc4nc(N)sc34)c(F)c2n1 [Compound 100]
10 to 30 µM

Please give the measured IC50 for this compound: CN1CCC[C@H]1COc1nc(NCCN)c2cc(Cl)c(-c3ccc(F)c4sc(N)nc34)c(F)c2n1 [Compound 49]
1 to 10 µM

Please give the measured IC50 for this compound: CNc1nc2c(-c3c(Cl)cc4c(NCCN)nc(OC[C@@H]5CCCN5C)nc4c3F)ccc(F)c2s1 [Compound 87]
10 to 30 µM

Please give the measured IC50 for this compound: Nc1nc2c(-c3c(OC(F)(F)F)cc4c(N5CC6CCC(C5)N6)nc(OC[C@@]56CCCN5C[C@H](F)C6)nc4c3F)ccc(F)c2s1 [Compound 232]
10 to 30 µM

Please give the measured IC50 for this compound: N#Cc1c(N)sc2c(F)ccc(-c3ccc4c(N5CC6CCC(C5)N6)nc(OC[C@@]56CCCN5C[C@H](F)C6)nc4c3F)c12 [Compound 358]
1 to 10 µM
